For each entry below, report its solubility at 24 h value.
- Assay Remarks: Measurement of solubility in buffer at pH 6.5
- Format: physicochemical
- Experimental Conditions: aqueous buffer, kinetic from dmso stock; PBS buffer pH 6.5, shaken 24 h at rt, LC-MSMS; read-out: Solubility of example compounds at pH 6.5
The reply should contain only the number, in µg/mL.

I'd like to know its solubility at 24 h. The compound in question is Cn1nc(C(F)(F)C(F)(F)F)c(C(F)(F)F)c1-n1cc(-c2ccc(Cl)c(C(=O)N(COC(=O)C3CC3C(=O)O)C3(C#N)CC3)c2)cn1 (centres unmarked)
331

Returns the measured solubility at 24 h for the input compound. Input: N#CC1(N(COC(=O)/C=C/C(=O)O)C(=O)c2cc(-c3cnn(-c4c(Cl)cc(C(F)(C(F)(F)F)C(F)(F)F)cc4OC(F)(F)F)c3)ccc2Cl)CC1
18

Returns the measured solubility at 24 h for the input compound. Input: Cn1nc(C(F)(F)C(F)(F)F)c(C(F)(F)F)c1-n1cc(-c2ccc(Cl)c(C(=O)N(COC(=O)CCC(=O)O)C3(C#N)CC3)c2)cn1
200

Please give the measured solubility at 24 h for this compound: Cn1nc(C(F)(F)C(F)(F)F)c(C(F)(F)F)c1-n1cc(-c2ccc(Cl)c(C(=O)N(COC(=O)C3(C(=O)O)CC3)C3(C#N)CC3)c2)cn1
171

What value of solubility at 24 h has been reported for the following compound? N#CC1(N(COC(=O)CCCC(=O)O)C(=O)c2cc(-c3cnn(-c4c(Cl)cc(C(F)(C(F)(F)F)C(F)(F)F)cc4OC(F)(F)F)c3)ccc2Cl)CC1
10

Please report the recorded solubility at 24 h for N#CC1(N(COC(=O)Cc2ccc(C(=O)O)cc2)C(=O)c2cc(-c3cnn(-c4c(Cl)cc(C(F)(C(F)(F)F)C(F)(F)F)cc4OC(F)(F)F)c3)ccc2Cl)CC1 .
5

Entry CC(C)(CC(=O)OCN(C(=O)c1cc(-c2cnn(-c3c(Cl)cc(C(F)(C(F)(F)F)C(F)(F)F)cc3OC(F)(F)F)c2)ccc1Cl)C1(C#N)CC1)C(=O)O has what solubility at 24 h?
5

Need solubility at 24 h, item N#CC1(N(COC(=O)CCC(=O)O)C(=O)c2cc(-c3cnn(-c4c(Cl)cc(C(F)(C(F)(F)F)C(F)(F)F)cc4OC(F)(F)F)c3)ccc2Cl)CC1
12

----------
- Assay Remarks: Degradation of prodrugs and release of parent drug in rat plasma
- Format: in vitro ADME
- Experimental Conditions: male, Hannover-Janvier RjHan, rat plasma (Li-heparin), 37° C., 0.17 h, percent area of prodrug at t0
Exercise: for every item that follows, state its recorded recovery at 0.17 h, 39 µg/mL.

Please give the measured recovery at 0.17 h, 39 µg/mL for this molecule: Cn1nc(C(F)(F)C(F)(F)F)c(C(F)(F)F)c1-n1cc(-c2ccc(Cl)c(C(=O)N(COC(=O)/C=C/C(=O)O)C3(C#N)CC3)c2)cn1
84%

Name the reported recovery at 0.17 h, 39 µg/mL value associated with the molecule Cn1nc(C(F)(F)C(F)(F)F)c(C(F)(F)F)c1-n1cc(-c2ccc(Cl)c(C(=O)N(COC(=O)c3ccc(C(=O)O)cc3)C3(C#N)CC3)c2)cn1
99%

For N#CC1(N(COC(=O)c2ccc(C(=O)O)cc2)C(=O)c2cc(-c3cnn(-c4c(Cl)cc(C(F)(C(F)(F)F)C(F)(F)F)cc4OC(F)(F)F)c3)ccc2Cl)CC1 , what is its reported recovery at 0.17 h, 39 µg/mL?
100%

Bench note: what recovery at 0.17 h, 39 µg/mL did N#CC1(N(COC(=O)/C=C/C(=O)O)C(=O)c2cc(-c3cnn(-c4c(Cl)cc(C(F)(C(F)(F)F)C(F)(F)F)cc4OC(F)(F)F)c3)ccc2Cl)CC1 show?
96%

Fill in the blank: the reported recovery at 0.17 h, 39 µg/mL of N#CC1(N(COC(=O)CCC(=O)O)C(=O)c2cc(-c3cnn(-c4c(Cl)cc(C(F)(C(F)(F)F)C(F)(F)F)cc4OC(F)(F)F)c3)ccc2Cl)CC1 is ____.
96%

Requested field: recovery at 0.17 h, 39 µg/mL. Item: Cn1nc(C(F)(F)C(F)(F)F)c(C(F)(F)F)c1-n1cc(-c2ccc(Cl)c(C(=O)N(COC(=O)C3CC3C(=O)O)C3(C#N)CC3)c2)cn1 (stereo not drawn)
93%

----------
For each record, write down the corresponding recovery at 24 h, 0.1 mg/mL.
- Assay Remarks: Measurement of stability of prodrugs in buffer at pH 7.4
- Format: physicochemical
- Experimental Conditions: PBS buffer pH 7.4, 37° C., HPLC peak area, read-out: % Recovery after 24 h (stability at pH 7.4)
Answer in %, number only, no unit symbol.

Which recovery at 24 h, 0.1 mg/mL is reported for this molecule? Cn1nc(C(F)(F)C(F)(F)F)c(C(F)(F)F)c1-n1cc(-c2ccc(Cl)c(C(=O)N(COC(=O)c3ccc(C(=O)O)cc3)C3(C#N)CC3)c2)cn1
100

Any idea what its recovery at 24 h, 0.1 mg/mL is? The molecule is Cn1nc(C(F)(F)C(F)(F)F)c(C(F)(F)F)c1-n1cc(-c2ccc(Cl)c(C(=O)N(COC(=O)CCCC(=O)O)C3(C#N)CC3)c2)cn1
100

Name the recorded recovery at 24 h, 0.1 mg/mL for Cn1nc(C(F)(F)C(F)(F)F)c(C(F)(F)F)c1-n1cc(-c2ccc(Cl)c(C(=O)N(COC(=O)CC(C)(C)C(=O)O)C3(C#N)CC3)c2)cn1 .
55

Entry Cn1nc(C(F)(F)C(F)(F)F)c(C(F)(F)F)c1-n1cc(-c2ccc(Cl)c(C(=O)N(COC(=O)C3CC3C(=O)O)C3(C#N)CC3)c2)cn1 (centres unmarked) : reported recovery at 24 h, 0.1 mg/mL = ?
100

Return reported recovery at 24 h, 0.1 mg/mL; argument: N#CC1(N(COC(=O)/C=C/C(=O)O)C(=O)c2cc(-c3cnn(-c4c(Cl)cc(C(F)(C(F)(F)F)C(F)(F)F)cc4OC(F)(F)F)c3)ccc2Cl)CC1
97
